target_desc: Bombyx mori EcR (VP16 fusion, CVBE switch construct) (Bombyx mori, UniProt P49881)
Sequence (P49881 86-606): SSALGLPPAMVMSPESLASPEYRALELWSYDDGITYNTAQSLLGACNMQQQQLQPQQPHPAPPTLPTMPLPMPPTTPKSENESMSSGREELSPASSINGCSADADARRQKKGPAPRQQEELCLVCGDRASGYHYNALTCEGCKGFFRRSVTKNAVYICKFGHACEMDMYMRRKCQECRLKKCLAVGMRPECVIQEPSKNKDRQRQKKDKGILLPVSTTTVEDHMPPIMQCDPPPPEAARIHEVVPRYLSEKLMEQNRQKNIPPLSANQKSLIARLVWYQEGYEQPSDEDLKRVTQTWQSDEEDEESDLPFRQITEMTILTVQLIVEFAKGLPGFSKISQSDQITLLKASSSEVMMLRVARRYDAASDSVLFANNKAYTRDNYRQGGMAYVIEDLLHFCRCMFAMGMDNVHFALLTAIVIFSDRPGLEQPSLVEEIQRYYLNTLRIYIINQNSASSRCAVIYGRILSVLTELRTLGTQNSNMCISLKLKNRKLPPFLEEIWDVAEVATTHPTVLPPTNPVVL
Sequence (P19793 whole entry partner, the tested form may be a part): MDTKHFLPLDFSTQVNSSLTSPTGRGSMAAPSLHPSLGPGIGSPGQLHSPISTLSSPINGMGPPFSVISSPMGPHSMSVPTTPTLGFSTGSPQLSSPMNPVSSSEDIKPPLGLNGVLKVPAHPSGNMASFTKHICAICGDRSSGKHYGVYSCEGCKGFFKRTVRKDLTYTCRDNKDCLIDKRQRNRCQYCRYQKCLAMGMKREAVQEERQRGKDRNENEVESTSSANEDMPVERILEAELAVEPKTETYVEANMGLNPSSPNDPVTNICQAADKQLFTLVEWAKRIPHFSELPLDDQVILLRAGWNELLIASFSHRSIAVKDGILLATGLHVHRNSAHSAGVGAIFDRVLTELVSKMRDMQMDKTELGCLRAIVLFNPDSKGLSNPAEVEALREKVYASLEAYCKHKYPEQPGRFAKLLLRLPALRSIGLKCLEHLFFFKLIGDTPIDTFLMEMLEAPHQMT
protocol: Z3 Assay (HEK-293 cells with CVBE and 6XEcRE LacZ, β-galactosidase reporter)
measurement_setup: maximum fold induction at any concentration relative to that of GS-E ligand; HEK-293 Z3 cells
// reported Z3 assay Rel Max FI per item
readout: Z3 assay Rel Max FI

compound: COc1cccc(C(=O)NN(C(=O)c2cc(C)cc(C)c2)C(C)(C)C)c1CN(C)C
test_result: 0.07
--
compound: CCc1c(OC)cccc1C(=O)NN(C(=O)c1cc(C)cc(C)c1)C(C)(C)COC
test_result: 1.031
--
compound: COc1cccc(C(=O)NN(C(=O)c2cc(C)cc(C)c2)C(C)(C)C)c1I
test_result: 0.923
--
compound: Cc1cc(C)cc(C(=O)N(NC(=O)c2cccc(I)c2C)C(C)(C)C)c1
test_result: 0.988
--
compound: Cc1c(C(=O)NN(C(=O)c2cc(F)cc(C(F)(F)F)c2)C(C)(C)C)ccc2c1OCCO2
test_result: 0.956
--
compound: CCc1c(OC)cccc1C(=O)NN(C(=O)c1ccccc1[S+](C)[O-])C(C)(C)C (centres unmarked)
test_result: 0.734
--
compound: CCC(N(NC(=O)c1cccc(C)c1C)C(=O)c1cc(C)cc(C)c1)C(C)(C)C (centres unmarked)
test_result: 0.950
--
compound: CCc1ccc(C(=O)NN(C(=O)c2cccc(C)c2)C(C)(C)C)c(F)c1
test_result: 0.995

* * *

target_desc: GAL4 DBD-CfEcR(DEF)/VP16AD-MmRXRE (Choristoneura fumiferana, UniProt O77240)
protocol: 13B3 Assay (CHO stable cell line, luciferase reporter)
measurement_setup: 33 uM ligand; RLU ligand treated / RLU DMSO treated cells; average of two wells
readout: Fold Induction, 13B3 Assay, 33 uM

compound: CCc1c(C(=O)NN(C(=O)c2cc(C)cc(C)c2)C(C)(C)C)ccc2c1OC(C)O2 (centres unmarked) [RG-101659]
test_result: 1185
//
compound: CCc1c(OC)cccc1C(=O)NN(C(=O)c1cc(C)cc(C=NNC(=O)C(N)=O)c1)C(C)(C)C [RG-115613]
test_result: 1726
//
compound: COc1cccc(C(=O)NN(C(=O)c2cc(Cl)nc(Cl)c2)C(C)(C)C)c1C [RG-100394]
test_result: 178
//
compound: COc1cccc(C(=O)NN(C(=O)c2cc(C)cc(C)c2)C(C)(C)C)c1N [RG-115378]
test_result: 2424
//
compound: CCc1c(OC)cccc1C(=O)NN(C(=O)c1cc(OC)ccc1OC)C(C)(C)C [RG-100779]
test_result: 2979
//
compound: COc1cccc(C(=O)NN(C(=O)c2cccnc2Cl)C(C)(C)C)c1C [RG-100127]
test_result: 365
//
compound: CC(=O)Oc1cccc(C(=O)NN(C(=O)c2cc(C)cc(C)c2)C(C)(C)C)c1C [RG-100749]
test_result: 288
//
compound: CCc1c(OC)cccc1C(=O)NN(C(=O)c1ccc(Cl)cc1OC)C(C)(C)C [RG-101218]
test_result: 1983

* * *

target_desc: GAL4 DBD-CfEcR(DEF)/VP16AD-MmRXRE (Choristoneura fumiferana, UniProt O77240)
protocol: 13B3 Assay (CHO stable cell line, luciferase reporter)
measurement_setup: 33 uM ligand; RLU ligand treated / RLU DMSO treated cells; average of two wells
readout: Fold Induction, 13B3 Assay, 33 uM

compound: CCc1c(C(=O)NN(C(=O)c2ccc(Cl)cc2F)C(C)(C)C)ccc2c1OCCO2 [RG-115514]
test_result: 515
//
compound: Cc1ccc([N+](=O)[O-])c(C(=O)N(NC(=O)c2ccc3c(c2C)CCCO3)C(C)(C)C)c1 [RG-115664]
test_result: 333
//
compound: COc1cccc(C(=O)NN(C(=O)c2cc(C)ccc2Cl)C(C)(C)C)c1Cl [RG-101248]
test_result: 415
//
compound: Cc1cc(C)cc(C(=O)N(NC(=O)c2cccc([N+](=O)[O-])c2C)C(C)(C)C)c1 [RG-100915]
test_result: 525
//
compound: CCc1c(OC)cccc1C(=O)NN(C(=O)c1cc(C)cc(C=NO)c1)C(C)(C)C [RG-115625]
test_result: 715
//
compound: CCc1ccc(C(=O)NN(C(=O)c2ccc(OC)nc2OC)C(C)(C)C)c(F)c1 [RG-115050]
test_result: 894
//
compound: CCc1c(C(=O)NN(C(=O)c2cccc(C(F)(F)F)c2)C(C)(C)C)ccc2c1OCO2 [RG-115260]
test_result: 13
//
compound: CCc1ccc(C(=O)NN(C(=O)c2cc(C)cc(C)c2)C(C)(C)C)cc1CC [RG-101889]
test_result: 378
//
compound: Cc1c(C(=O)NN(C(=O)c2ccc(F)cc2)C(C)(C)C)ccc2c1OCCO2 [RG-100425]
test_result: 747
//
compound: CCc1c(OC)cccc1C(=O)NN(C(=O)c1cc(F)cc(C(F)(F)F)c1)C(C)(C)C [RG-115088]
test_result: 1048
//
compound: CCc1c(C(=O)NN(C(=O)c2cccc(C)c2)C(C)(C)C)ccc2c1OCCO2 [RG-101036]
test_result: 908
//
compound: COc1cc(Cl)ccc1C(=O)N(NC(=O)c1cccc(OC)c1C)C(C)(C)C [RG-100848]
test_result: 578
//
compound: CCc1c(OC)cccc1C(=O)NN(C(=O)c1cccc(Br)c1)C(C)(C)C [RG-115038]
test_result: 4970
//
compound: Cc1cc(C)cc(C(=O)N(NC(=O)c2ccc(CC#N)cc2)C(C)(C)C)c1 [RG-100875]
test_result: 1143
//
compound: COc1ccccc1C(=O)N(NC(=O)c1ccc2c(c1C)CCCO2)C(C)(C)C [RG-115102]
test_result: 109
//
compound: Cc1ccc([N+](=O)[O-])c(C(=O)N(NC(=O)c2ccc3c(c2C)OCCO3)C(C)(C)C)c1 [RG-115384]
test_result: 2277
//
compound: CCc1c(OC)cccc1C(=O)NN(C(=O)c1cc(OC)cc(OC)c1)C(C)(C)C [RG-100778]
test_result: 2344
